Experiment: ATG_Ets_CIS: Attagene CIS-FACTORIAL HepG2 Assay for human Erythroblast Transformation Specific (ETS) (AID 2282941)
Settings: HepG2 ETS cis-reporter transcription, actives raise or lower the signal
Method: ATG_CIS is a cell-based, multiplexed-readout assay that uses HepG2, a human liver cell line, with measurements taken at 24 hours after chemical dosing in a 24-well plate.ATG_Ets_CIS is one of 52 assay component(s) measured or calculated from the ATG_CIS assay. […] This assay endpoint, ATG_Ets_CIS, was analyzed with bidirectional fitting relative to DMSO as the negative control and baseline of activity. […]
Calls of active or inactive are those of the source. Rule for the calls: active = hit-call score of the fitted dose curve at least 0.9, where 1 is the maximum; inactive = score below 0.9.
Your response should consist of one outcome taken from label 1 for active, label 0 for inactive

A selection of reference data follows.
>  <compound>
CCCCCCCCCCCC#N

>  <category>
label 0

$$$$
>  <compound>
CCC(Br)(CC)C(=O)NC(N)=O

>  <category>
label 0

$$$$
>  <compound>
CCC(C)c1cc([N+](=O)[O-])cc([N+](=O)[O-])c1OC(=O)C=C(C)C (stereo unspecified)

>  <category>
label 1

$$$$

What did the test return for Cl/C=C\CCl ?
label 0

----------
Molecular target: Cellular tumor antigen p53 (Homo sapiens)
Assay: TOX21_p53_BLA_p4_ratio: Tox21 HCT-116 p53 Agonism Beta-lactamase Assay, Ratio, Phase 4 (AID 2283601)
Inconclusive results are not listed. Active and inactive are the calls of the source. How the source made its calls: active means hit-call score of the fitted dose curve at least 0.9, where 1 is the maximum; inconclusive means response in the unintended direction; inactive means score below 0.9.
Your response should consist of one outcome taken from True for active, False for inactive

What did the test return for N#CCNCC#N ?
False

What did the test return for CCC(=O)O[C@](Cc1ccccc1)(c1ccccc1)[C@H](C)CN(C)C ?
False

What did the test return for CC(C)(C)C(=O)C(Cl)Cl ?
False

What did the test return for c1csc(C2(N3CCCCC3)CCCCC2)c1 ?
False

What did the test return for CC(N)Cc1ccc2c(c1)OCO2 (centres undefined) ?
False

What did the test return for O=[N+]([O-])c1cc(I)c(O)c(I)c1 ?
True

What did the test return for CC(N)=S ?
False

What did the test return for CC(NC(C)(C)C)C(=O)c1cccc(Cl)c1 (centres undefined) ?
False

What did the test return for O=C1CC(=O)NC(=O)N1 ?
False

----------
Assay: ATG_NFI_CIS: Attagene CIS-FACTORIAL HepG2 Assay for human Nuclear Factor I (NFI) (AID 2282989)
Settings: HepG2 cis-regulatory reporter, NFI response element transcription; actives raise or lower the signal
Active and inactive are the calls of the source. How the source made its calls: active means hit-call score of the fitted dose curve at least 0.9, where 1 is the maximum; inactive means score below 0.9.
Your response should consist of one outcome taken from 1 (yes) (active), 0 (no) (inactive)

A selection of reference data follows.
>  <smiles>
O=[N+]([O-])c1cc(C(F)(F)F)c(Cl)c([N+](=O)[O-])c1Cl

>  <category>
1 (yes)

$$$$
>  <smiles>
CCOP(=O)(OCC)OCC

>  <category>
0 (no)

$$$$

API: the following record is the query input.
What did the test return for COc1ccc(CO)cc1 ?
0 (no)

----------
Read-out: Macrophage colony-stimulating factor (MCSF), CSF1 (gene 1435)
Experiment: BSK_LPS_MCSF: BioMAP Diversity Plus: LPS Assay for Macrophage colony-stimulating factor (MCSF) Biomarker Activity (AID 2283083)
Conditions: primary human HUVEC with PBMC; actives raise or lower the signal
Calls of active or inactive are those of the source. How the source made its calls: active means hit-call score of the fitted dose curve at least 0.9, where 1 is the maximum; inactive means score below 0.9.
Your response should consist of one outcome taken from YES = active, NO = inactive

>  <compound>
CC(C)(C)C(=O)CCl

>  <category>
YES

$$$$
>  <compound>
CNC(=O)Oc1cc(C)c(SC)c(C)c1

>  <category>
NO

$$$$
>  <compound>
CC(=O)/C=C/c1ccccc1

>  <category>
YES

$$$$

What did the test return for Clc1ccc(-c2ccccc2)cc1 ?
NO

What did the test return for C=CC(=O)OCC(CC)CCCC (configuration not stated) ?
NO

What did the test return for N#CCCCCC#N ?
NO

What did the test return for O=c1c2ccccc2c(=O)c2c1cc(Cl)c1[nH]c3c([nH]c12)c(Cl)cc1c(=O)c2ccccc2c(=O)c13 ?
NO

----------
Assay: TOX21_p53_BLA_p5_viability: Viability Assessment in the Tox21 HCT-116 p53 Agonism Beta-lactamase Assay, Phase 5 (AID 2283600)
Inconclusive results are not listed. Active and inactive are the calls of the source. The calls were made as follows: active = hit-call score of the fitted dose curve at least 0.9, where 1 is the maximum; inconclusive = response in the unintended direction; inactive = score below 0.9.
Your response should consist of one outcome taken from active, inactive

A selection of reference data follows.
>  <compound>
COc1cc(C[C@@H](C)N)c(OC)cc1Br

>  <category>
inactive

$$$$
>  <compound>
CCCCC/C=C\C/C=C\C/C=C\C/C=C\CCCC(=O)NCC(=O)O

>  <category>
inactive

$$$$
>  <compound>
CCCC(C)(COC(N)=O)COC(=O)NC(C)C (stereo not given)

>  <category>
inactive

$$$$
>  <compound>
CC(C)CON=O

>  <category>
inactive

$$$$
>  <compound>
O=C(N/N=C/c1ccc([N+](=O)[O-])o1)c1cc([N+](=O)[O-])cc([N+](=O)[O-])c1O

>  <category>
inactive

$$$$
>  <compound>
COC1=CC(=O)O[C@@H](CCc2ccccc2)C1

>  <category>
inactive

$$$$
>  <compound>
Cc1nnc2n1-c1ccc(Cl)cc1C(c1ccccc1Cl)=NC2

>  <category>
inactive

$$$$
>  <compound>
Cc1nnc2n1-c1sc(CCC(=O)N3CCOCC3)cc1C(c1ccccc1Cl)=NC2

>  <category>
inactive

$$$$

API: the following record is the query input.
What did the test return for BrCCc1ccccc1 ?
inactive

----------
Molecular target: human Caspase 2 (CASP2), CASP2 (gene 835) (UniProt P42575)
Sequence (P42575 whole entry, looked up): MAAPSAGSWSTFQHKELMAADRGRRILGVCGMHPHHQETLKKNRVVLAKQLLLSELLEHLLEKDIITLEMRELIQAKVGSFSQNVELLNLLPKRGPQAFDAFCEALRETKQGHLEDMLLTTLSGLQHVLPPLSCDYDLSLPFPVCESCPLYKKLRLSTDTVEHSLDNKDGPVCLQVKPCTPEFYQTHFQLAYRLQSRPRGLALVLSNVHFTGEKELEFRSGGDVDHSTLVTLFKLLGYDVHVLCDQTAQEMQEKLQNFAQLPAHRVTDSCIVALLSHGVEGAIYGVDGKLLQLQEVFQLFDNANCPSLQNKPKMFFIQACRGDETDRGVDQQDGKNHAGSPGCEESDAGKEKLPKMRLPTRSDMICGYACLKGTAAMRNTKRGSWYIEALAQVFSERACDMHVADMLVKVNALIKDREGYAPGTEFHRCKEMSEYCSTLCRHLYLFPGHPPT
Assay: NVS_ENZ_hCASP2: NovaScreen (NVS) Enzymatic Assay for human Caspase 2 (CASP2) (AID 2283135)
Inconclusive results are not listed. The source made the active and inactive calls. The calls were made as follows: active = hit-call score of the fitted dose curve at least 0.9, where 1 is the maximum; inconclusive = response in the unintended direction; inactive = score below 0.9.
Your response should consist of one outcome taken from active, inactive

>  <molecule>
CC(=O)c1ccccc1

>  <assayed target>
human Caspase 2 (CASP2), CASP2 (gene 835) (UniProt P42575)

>  <category>
inactive

$$$$

What did the test return for NCC1(Cc2noc(=O)[nH]2)CCCCC1 ?
inactive

----------
Assay: BSK_BT_PBMCCytotoxicity: PBMC Cytotoxicity Assessment in the BioMAP Diversity Plus: BT Assay (AID 2284225);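 note: PBMC viability measured by Alamar Blue dye reduction fluorescence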
Settings: primary human B cells with PBMC
Calls of active or inactive are those of the source. How the source made its calls: active means hit-call score of the fitted dose curve at least 0.9, where 1 is the maximum; inactive means score below 0.9.
Your response should consist of one outcome taken from yes for active, no for inactive

A selection of reference data follows.
>  <compound>
C=CC(=O)OCC(CC)CCCC (stereo unspecified)

>  <category>
no

$$$$
>  <compound>
O=P1(NCCCl)OCCCN1CCCl (stereo unspecified)

>  <category>
no

$$$$

What did the test return for CC(C)CCCCCCCOC(=O)c1ccccc1C(=O)OCCCCCCCC(C)C ?
no

What did the test return for Clc1ccc(-c2ccccc2)cc1 ?
no

What did the test return for O=[N+]([O-])C=Cc1ccccc1 ?
yes

What did the test return for CCc1cc(C)cc(CC)c1-c1c(OC(=O)C(C)(C)C)n2n(c1=O)CCOCC2 ?
no

----------
Experiment: ATG_ERE_CIS: Attagene CIS-FACTORIAL HepG2 Assay for Estrogen Response Element (ERE) (AID 2282940)
Conditions: HepG2 ERE cis-reporter, Attagene RNA transcript; actives raise or lower the signal
The source made the active and inactive calls. How the source made its calls: active means hit-call score of the fitted dose curve at least 0.9, where 1 is the maximum; inactive means score below 0.9.
Your response should consist of one outcome taken from active, inactive

>  <compound>
O=C(O)COc1ccccc1

>  <category>
inactive

$$$$
>  <compound>
CCc1cc(C)cc(CC)c1-c1c(OC(=O)C(C)(C)C)n2n(c1=O)CCOCC2

>  <category>
inactive

$$$$

What did the test return for O=c1c2ccccc2c(=O)c2c1cc(Cl)c1[nH]c3c([nH]c12)c(Cl)cc1c(=O)c2ccccc2c(=O)c13 ?
inactive

What did the test return for N#CCNCC#N ?
inactive

----------
Assay: ATG_EGR_CIS: Attagene CIS-FACTORIAL HepG2 Assay for human Early Growth Response 1 (EGR1) (AID 2282938)
Details: HepG2 Attagene CIS-FACTORIAL EGR reporter mRNA; actives raise or lower the signal
The source made the active and inactive calls. The calls were made as follows: active = hit-call score of the fitted dose curve at least 0.9, where 1 is the maximum; inactive = score below 0.9.
experimental readout: AC50

Example molecules with recorded AC50:
>  <molecule>
O=C1C(Cl)=C(Cl)C(=O)C(Cl)=C1Cl

>  <experimental readout>
AC50

>  <recorded value>
137 µM (active)

$$$$
>  <molecule>
Cl/C=C\CCl

>  <experimental readout>
AC50

>  <recorded value>
inactive

$$$$
>  <molecule>
Cc1ccc(OP(=O)(Oc2ccc(C)cc2)Oc2ccc(C)cc2)cc1 (tested in a mixture with another compound)

>  <experimental readout>
AC50

>  <recorded value>
inactive

$$$$
>  <molecule>
CC(C)(Cl)Cl

>  <experimental readout>
AC50

>  <recorded value>
inactive

$$$$
>  <molecule>
Nc1cc(Cl)cc(Cl)c1

>  <experimental readout>
AC50

>  <recorded value>
inactive

$$$$

AC50 reported for this molecule O=C(O)CCl : inactive

AC50 reported for this molecule N#Cc1cc(I)c(O)c(I)c1 : inactive

AC50 reported for this molecule C=CC(=O)OCCO : 116 µM (active)

AC50 reported for this molecule [CH3][Sn]([Cl])([Cl])[Cl] : inactive

AC50 reported for this molecule CC(C)[C@@H](C(=O)O[C@@H](C#N)c1cccc(Oc2ccccc2)c1)c1ccc(Cl)cc1 : inactive

AC50 reported for this molecule Cc1cc(C)c(C2=C(OC(=O)CC(C)(C)C)C3(CCCC3)OC2=O)c(C)c1 : 104 µM (active)

AC50 reported for this molecule CCOP(=O)(OCC)Oc1ccc([N+](=O)[O-])cc1 : inactive

AC50 reported for this molecule Nc1ccc(Cl)c(Cl)c1 : inactive
